Taken from patent US12319655B2.

# Measurement target: B-Raf kinase (SEQ. ID NO: 2) (Homo sapiens (Human))
# Sequence (P15056 416-766): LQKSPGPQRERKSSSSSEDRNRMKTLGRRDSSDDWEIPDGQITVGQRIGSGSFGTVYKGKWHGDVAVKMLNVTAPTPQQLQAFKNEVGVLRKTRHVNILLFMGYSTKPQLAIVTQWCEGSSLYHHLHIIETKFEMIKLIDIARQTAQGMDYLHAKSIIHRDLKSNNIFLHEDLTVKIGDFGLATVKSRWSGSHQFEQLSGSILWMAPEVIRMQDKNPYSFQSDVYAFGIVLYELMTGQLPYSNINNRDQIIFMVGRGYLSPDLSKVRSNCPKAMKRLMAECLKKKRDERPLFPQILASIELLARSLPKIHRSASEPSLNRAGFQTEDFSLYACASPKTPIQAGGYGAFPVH
# Test name: Biochemical Assay for B-Raf (1)
# Conditions: Table J, assay version (1); read-out: BRAF (1) IC50
pIC50: −log10 of the molar value.
Measurement type: pIC50

[
  {
    "Compound": "Cc1ncc(NC(=O)C2CCOC2)cc1-c1ccnc(-c2ccnc(NC(=O)C3CC3)c2)n1 (stereo not drawn)",
    "Measurement target": "B-Raf kinase (SEQ. ID NO: 2) (Homo sapiens (Human))",
    "Measurement type": "pIC50",
    "Assay result": "5.00 to 6.00"
  },
  {
    "Compound": "CNC(=O)c1cc(-c2cnnc(-c3cc(NC(=O)c4ccnc(C(C)(C)F)c4)ccc3C)c2)ccn1",
    "Measurement target": "B-Raf kinase (SEQ. ID NO: 2) (Homo sapiens (Human))",
    "Measurement type": "pIC50",
    "Assay result": "6.30 to 7.00"
  }
]

Turning now to a further record.
Lookup: State the recorded pIC50 for this entry: `COC(=O)Nc1cc(-c2cnnc(-c3cc(NC(=O)COCC4CC4)ccc3C)c2)ccn1`
Found: 6.00 to 6.30
